Values from the supplement of paper PMC6555819

tested on: LXRa:RXRa (NR concentration 270 nM, RXRa partner concentration 90 nM); assay: PBM binding z-score (relative to random genomic background probes); higher = stronger binding; sequences stand for … in GC…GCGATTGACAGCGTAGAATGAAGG
// 0.0 strictly below 0.9 in PBM binding z-score; 1.0 otherwise

Exam item: Answer whether PBM binding z-score of `TCTTGTCGATCAACAGGAGGTTAAGAAAGATCGA` is greater than or equal to 0.9.
Marked response: 1.0

Exam item: Threshold query (PBM binding z-score >= 0.9) on `AGAATGAGGTTATACGTAGATCGGGGAAGAAAGT`
Marked response: 1.0

Exam item: Decide: PBM binding z-score of `TCTGCAAGGTCAGTTGGTCAGCTAACGAGCTGCC` >= 0.9?
Marked response: 1.0

Exam item: Does the reported PBM binding z-score for `TTACCAAGGTGAGCTGAGGGCGTTGATCCAACTC` fall at or above the 0.9 mark?
Marked response: 0.0

Exam item: Threshold query (PBM binding z-score >= 0.9) on `TCGAGTAGGTTAGAGGCATTCAGAATGGCGTCGA`
Marked response: 0.0

Exam item: Could you tell me if the measured PBM binding z-score of `CCTTACGGGTCACGGACAGGTTATAGCATTTGGA` reaches 0.9 or more?
Marked response: 1.0

Exam item: API: above_or_equal(metric=PBM binding z-score, cutoff=0.9) for item `ACTAGCTGGTCAGCTGAGGTCACACACAATTCGG`
Marked response: 1.0

Exam item: Identify whether the reported PBM binding z-score of the following sequence is 0.9 or greater: `ACTATTAGTTGAGACGCGGGCAACCGATAGGTTG`
Marked response: 0.0

Exam item: Dear colleague, could you confirm whether `CGTCCAAGGTCAGCAGGTCAGTGGAAGCGACGTG` has PBM binding z-score at or above 0.9?
Marked response: 1.0

Exam item: Evaluate `TCATAAAGGTAAATGCTAGGTGAAAGTCCGATCT` : PBM binding z-score at minimum 0.9?
Marked response: 1.0

Exam item: Decide: PBM binding z-score of `CCGACTGGGCCATCAGGTCATTGATATCAACGTT` >= 0.9?
Marked response: 1.0

Exam item: Given the entry `CGTCCAAGTTCAAGGTAACGTAACAGAAAGCAGC` , answer whether its PBM binding z-score meets or surpasses 0.9.
Marked response: 1.0

Exam item: Confirm if PBM binding z-score reported for the sequence `TAGCCGAGGTCATGGGCCAGTATACCACGCGAAC` is 0.9 or above.
Marked response: 1.0

Exam item: Hi team, for `CCACGGAGGACAACAGGAGGTCAGAGCTGCCAGA` , is the recorded PBM binding z-score at or above 0.9?
Marked response: 1.0

Exam item: Kindly determine if PBM binding z-score recorded for `GCTAGCAGGCCATTTGGGTCACTCAATGACGGGC` is above or exactly 0.9.
Marked response: 0.0

Exam item: hey, is PBM binding z-score for this one >= 0.9? `TCTTGTCGATCAAGCAGGTTAAGAAAGCCTGAGT`
Marked response: 0.0

Exam item: Say whether `GCTTACGGGTCAAAGGTTATATCATGAATAGAAT` shows PBM binding z-score of 0.9 or more.
Marked response: 1.0

Exam item: Confirm if PBM binding z-score reported for the sequence `CGAACTAGGTCAGAACAGGACAGTGAGGGATGAT` is 0.9 or above.
Marked response: 0.0

Exam item: Check if PBM binding z-score >= 0.9 (inclusive). Item: `AATACACGGTCACTAGGCCAGAGTAGGTACGAAT`
Marked response: 1.0

Exam item: Quick check, PBM binding z-score >= 0.9? `TAGCCAAGGTCATTGGGCCAGTATAGTACGCATC`
Marked response: 1.0

Exam item: Determine whether measured PBM binding z-score meets or exceeds 0.9 for `ATCTAAAGGTCGACGAGGTGAGTATACACCGTTT`
Marked response: 1.0

Exam item: Would you say `TCATATAGGTAATACGGGTGAAAGTCGGCATCTA` shows PBM binding z-score at minimum 0.9?
Marked response: 0.0

Exam item: Tell me whether PBM binding z-score is at least 0.9 here: `CGTCCAAGGTCAGAGAGCTCAGTGAATGCCGAGT`
Marked response: 1.0

Exam item: Please indicate if the recorded PBM binding z-score for `GTACCAAGGTTAATAGGTCGTTGATGAGTAGGCG` meets or exceeds 0.9.
Marked response: 1.0

Exam item: Quick check: does `TCGTATAGGTAAAGGTGAAAGTCGAACGATATGA` have PBM binding z-score greater than or equal to 0.9?
Marked response: 1.0

Exam item: Could you verify whether the entry `ATCTCTAGGTAAAGTTCAGGGAAAGATCGATAGA` shows PBM binding z-score of no less than 0.9?
Marked response: 1.0

Exam item: Please tell me: is the sequence `CCAGACAGGTGAAAGGTGACTCAGTCTGGTACGC` at or over 0.9 in terms of PBM binding z-score?
Marked response: 1.0

Exam item: Hi team, for `CCGACTGGAGCAAGGTTACCATAACGCACAGCCA` , is the recorded PBM binding z-score at or above 0.9?
Marked response: 0.0

Exam item: Is PBM binding z-score for `CCTACTGGGCCATTCAGTGGTCATTGATCATATG` at or above 0.9?
Marked response: 0.0

Exam item: Kindly determine if PBM binding z-score recorded for `TCTCGGAGGAGACGAAGGTCAGAGCTTTCCAGAG` is above or exactly 0.9.
Marked response: 0.0

Exam item: # check: PBM binding z-score of `TAGCCTAGGTCATGCAGGGGCCAGTATAGAAAGC` is greater than or equal to 0.9
Marked response: 1.0

Exam item: Is PBM binding z-score at least 0.9? Consider `GCAGCCAGGTGAAACGCAGGTAACTCAGGGTGGC`
Marked response: 0.0

Exam item: Quick check: does `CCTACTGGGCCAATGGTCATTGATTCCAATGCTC` have PBM binding z-score greater than or equal to 0.9?
Marked response: 0.0

Exam item: Could you please find out whether `GGGACTGGGGCATCAGCAGGTTACCATAACTTAA` has PBM binding z-score that meets 0.9 or exceeds it?
Marked response: 0.0

Exam item: Check the entry `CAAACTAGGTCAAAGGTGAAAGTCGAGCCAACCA` : does PBM binding z-score equal or exceed 0.9?
Marked response: 1.0

Exam item: Assess whether reported PBM binding z-score for `CTCGAAAGGCCGGTTGAGGTGAGTATACGGATAA` sits at 0.9 or higher.
Marked response: 0.0

Exam item: Answer whether PBM binding z-score of `CGAACTAGGTCAAGGACAGAGAATCTCCGCACGC` is greater than or equal to 0.9.
Marked response: 1.0

Exam item: Could you tell me if the measured PBM binding z-score of `CCTATTAGTTGACCAGAAGGGCAACCGAAGCTCG` reaches 0.9 or more?
Marked response: 0.0

Exam item: hey, is PBM binding z-score for this one >= 0.9? `CCTACTGGGCCATCTGGTCATTGATATCAACGTT`
Marked response: 0.0

Exam item: Textbook exercise: given the entry `CCTTACGGGTGACTCCAGGTTATAGCATCGGAGT` , state whether its PBM binding z-score is greater than or equal to 0.9.
Marked response: 1.0

Exam item: State whether the measured PBM binding z-score reaches 0.9, counting equality as reaching it, for `AGAATGAGGTAATTAAGATCAGGGAATTGCGGTC`
Marked response: 0.0

Exam item: # bool: PBM binding z-score of `CTCGAAAGGCCGTGCTCAGGTGAGTATACCAAAC` >= 0.9
Marked response: 0.0

Exam item: Threshold query (PBM binding z-score >= 0.9) on `CGAACTAGGTCACAACAGGACAGTGAAGGATGAT`
Marked response: 1.0

Exam item: State whether the measured PBM binding z-score reaches 0.9, counting equality as reaching it, for `TCTCGGAGGAGACGAAAGGTCAGAGCTCGACATC`
Marked response: 1.0

Exam item: Does `CCTAGCAGGCCCATCTGGGTCACTCAAGGCTTGA` have a reported PBM binding z-score of at least 0.9?
Marked response: 0.0

Exam item: Item `CGTCCAAGGTCAATGCCAGGTCAGTGAAAGCATT` with PBM binding z-score of 0.9 or above?
Marked response: 1.0

Exam item: Is the recorded value of PBM binding z-score equal to or greater than 0.9 for this sequence? `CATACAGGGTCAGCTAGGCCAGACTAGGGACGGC`
Marked response: 1.0

Exam item: Hi team, for `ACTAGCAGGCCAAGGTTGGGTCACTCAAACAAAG` , is the recorded PBM binding z-score at or above 0.9?
Marked response: 0.0

Exam item: API: above_or_equal(metric=PBM binding z-score, cutoff=0.9) for item `CAAACTAGGTCACCGGAAGGTCAAAGTACGCATG`
Marked response: 1.0

Exam item: Confirm if PBM binding z-score reported for the sequence `TCTTGTAGACCAGCAGGTTAAGAAAGCTGGCCAA` is 0.9 or above.
Marked response: 0.0

Exam item: Identify whether the reported PBM binding z-score of the following sequence is 0.9 or greater: `TCGAGTAGGTTAGGGGCATTAAGAATGGCGTCGA`
Marked response: 0.0
